Molecular target: T1, Ala mutant having 3-amino acid substitution, SEQ ID NO: 44
T1 peptide: AAAMDDQWMQDEMEIGY
Assay: ELISA, coated peptide
Exercise: state measured OD 490/630 nm for each of the binders provided.
Give bare numbers.

Worked cases, OD 490/630 nm given:
binder	OD 490/630 nm
E9 (antibody, V domains shown, Chicken variable regions in a mouse chimeric antibody (IgG1); also called anti-PAD4 antibody E9) VH: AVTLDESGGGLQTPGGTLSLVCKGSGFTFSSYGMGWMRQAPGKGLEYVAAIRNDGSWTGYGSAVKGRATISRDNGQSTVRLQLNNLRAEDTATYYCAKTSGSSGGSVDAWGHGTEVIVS VL: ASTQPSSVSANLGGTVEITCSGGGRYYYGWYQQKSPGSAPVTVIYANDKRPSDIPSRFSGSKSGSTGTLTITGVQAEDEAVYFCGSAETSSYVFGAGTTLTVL	1.9
G6 (antibody, V domains shown, Chicken variable regions in a mouse chimeric antibody (IgG1); also called anti-PAD4 antibody G6) VH: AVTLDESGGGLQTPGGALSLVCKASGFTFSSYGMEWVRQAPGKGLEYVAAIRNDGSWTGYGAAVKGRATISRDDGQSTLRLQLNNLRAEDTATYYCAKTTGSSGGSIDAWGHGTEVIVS VL: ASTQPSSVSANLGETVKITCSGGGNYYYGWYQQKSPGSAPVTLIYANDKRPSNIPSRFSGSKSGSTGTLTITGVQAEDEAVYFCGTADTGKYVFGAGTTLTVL	1.92

Q: Fill blank: measured OD 490/630 nm of the binder G8 (antibody, V domains shown, Chicken variable regions in a mouse chimeric antibody (IgG1); also called anti-PAD4 antibody G8) VH: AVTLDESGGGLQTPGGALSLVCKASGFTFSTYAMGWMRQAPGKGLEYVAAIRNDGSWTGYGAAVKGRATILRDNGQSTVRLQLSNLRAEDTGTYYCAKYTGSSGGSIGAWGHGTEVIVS VL: ASTQPSSVSANLGGTVEITCSGGNRNYYYGWYQQKSPGSAPVTLIYANDKRPSNIPSRFSGSKSGSTGTLTITGVQAEDEAVYFCGTADTGKYVFGAGTTLTVL is ____.
Ans: 1.9
